System: HCC-2998 colon
assay-remarks: NCI tumour cell line growth inhibition, 48 h
readout-label: TGI (µM)
Reply numerically in µM, unit not repeated.

CCOc1ccc(N2C(=O)C3c4[nH]c5ccccc5c4C4CCC(C(C)(C)C)CC4C3C2=O)cc1 (stereo not drawn) = 79.4

Q: # query: TGI of entry `CCN(CC)CCN1CCNc2c3cc(OC)ccc3nc3c([N+](=O)[O-])ccc1c23`
A: 2.03

----------
Each item that follows carries a reported TGI.
Tested on: OVCAR-4 ovarian
assay-remarks: NCI tumour cell line growth inhibition, 48 h
Express your answer in µM, writing the number without its unit.

Q: Which TGI value belongs to `O=C1/C(=C\c2ccc(Cl)cc2)CN(C(=S)Nc2ccccc2)C/C1=C\c1ccc(Cl)cc1` ?
A: 2.77

Q: Sample CC[C@@H]1CN2CCC1C[C@@H]2C(O)c1ccnc2ccc(OCCN3CCN(CCOc4ccc5nccc(C(O)[C@@H]6C[C@@H]7CCN6C[C@@H]7CC)c5c4)CC3)cc12 (some centres undefined) — what was its TGI?
A: 40.8

----------
Tested on: HL-60(TB) leukemia
assay-remarks: NCI tumour cell line growth inhibition, 48 h; in the data active = GI50 below about 0.43 µM; inactive = the rest
// classify into Yes for active, No for inactive

OB([O][Hg][c]1ccccc1)[O][Hg][c]1ccccc1 = Yes
CCOC(=O)CCC(NC(=O)c1ccc(N=Cc2nc3cc(C(F)(F)F)ccc3nc2-c2ccccc2)cc1)C(=O)OCC (stereo not given) = No
O=C(c1cccs1)c1c(C(F)(F)F)n([O-])c2ccc(C(F)(F)F)cc2[n+]1=O = Yes
Cc1cc(NC(=O)C2c3ccccc3C(=O)N(CC(C)C)C2c2cccs2)no1 (stereo not given) = No

Q: How did this test come out for COc1cc(C2CC(c3cccc(Nc4ccncc4)c3)=NN2c2cc(Cl)cc(Cl)c2)cc(OC)c1OC (stereo not given) ?
A: No

----------
Tested on: TK-10 renal
assay-remarks: NCI tumour cell line growth inhibition, 48 h
readout-label: TGI

Q: Suppose we examine the compound `O=C(c1ccccc1)c1nn(-c2ccc(Cl)cc2)c2nc3nc(-c4ccccc4)cc(=O)n3nc12` ; what TGI value has been reported?
A: 85.6 µM

----------
Tested on: IGROV1 ovarian
assay-remarks: NCI tumour cell line growth inhibition, 48 h
Each entry below carries its reported TGI.

// below: answered compounds
OC1c2ccccc2[C@@H]2[C@H]1[C@@H](c1ccccc1)C1(Cc3ccccc3C1O)[C@H]2c1ccccc1 (some centres undefined) = 16.6 µM
CC1(C)CC(=O)C2=C(C1)NC(SSC1=C(C#N)C(c3ccccc3)C3=C(CC(C)(C)CC3=O)N1)=C(C#N)C2c1ccccc1 (centres undefined) = 50.1 µg/mL
CCCCCCCCCCCCCCCC(=O)ON1C(=S)NC(C)(c2ccccc2)C1=S (centres undefined) = > 100 µM

Next:
Q: Report TGI for `N=C(/C=C/c1ccc(-c2cn3cc(/C=C/C(=N)N4CCCC4)ccc3n2)cc1)N1CCCC1` tested on IGROV1 ovarian.
A: > 100 µM

----------
Tested on: MALME-3M melanoma
assay-remarks: NCI tumour cell line growth inhibition, 48 h
readout-label: TGI

Cc1nc2c(o1)C(=O)c1ccccc1C2=NC1CCCCC1N (stereo not drawn) = 0.275 µM
O=C1C=C(N2CCCC2)C=C(N2CCCC2)C1 = > 100 µM
Cc1ccc(-c2sc(-c3ccc(C)cc3)c3c2C2CCC3C2)cc1 = > 50 µM
COc1cc(C(=O)O)c([N+](=O)[O-])c(OC)c1OC = > 100 µM
CCOc1ccc(N2C(=O)C3c4[nH]c5ccccc5c4C4CCC(C(C)(C)C)CC4C3C2=O)cc1 (stereo not drawn) = > 100 µM
COc1ccccc1/C=C1\Sc2scc(-c3cccc([N+](=O)[O-])c3)[n+]2C1=O = 15.7 µM

Q: Which TGI value is on record for `COc1ccccc1C(=O)/C=C/c1cc2cccc(OC)c2[nH]c1=O` ?
A: 4.6 µM

Q: Reported TGI for `O=C1c2ccccc2-c2c1c1ccccc1c(=O)n2CCO` : what is it?
A: > 100 µM

----------
Tested on: NCI-H226 lung
assay-remarks: NCI tumour cell line growth inhibition, 48 h
Examples of molecules with documented GI50 follow.

Cc1cc(NC(=O)C2c3ccccc3C(=O)N(CC(C)C)C2c2cccs2)no1 (stereo not given) = > 100 µM
C[C@H]1[C@H](OC(=O)CCC(=O)O)O[C@@H]2O[C@]3(C)CC[C@H]4[C@H](C)CC[C@@H]1[C@@]24OO3 = 0.956 µM

Q: Need GI50 of `CCOC(=O)c1cnc(SCc2ccc(Cl)c(Cl)c2)nc1N1CC1` , thanks.
A: 5.01 µM

Q: Endpoint output: GI50 of CCCCCCCCCCCCCCCCCCNC(=O)[C@H]1CSC(c2ccc(OC)c(F)c2)N1 (stereo not given in full) . Value?
A: 2.28 µM

Q: Name the reported GI50 value associated with the molecule Nc1cccc2c1C(=O)N(C1CCC(=O)NC1=O)C2=O (stereo not given)
A: > 100 µM

----------
System: RPMI-8226 leukemia
assay-remarks: NCI tumour cell line growth inhibition, 48 h
readout-label: TGI

Solved cases below.
COc1cc(N(CCC#N)CCC#N)ccc1/C(N=Nc1ccc(C)cc1)=N/NC(=O)c1cc(Br)ccc1O = > 100 µM
NS(=O)(=O)c1ccc(NC(=O)c2cc([N+](=O)[O-])cc([N+](=O)[O-])c2)cc1 = > 100 µM
COC(=O)c1ccc2c(c1)CC1(C2)Cc2cc3c(c(C(=O)OC)c2C1)CCCC3 (stereo not drawn) = > 100 µM
C[C@@H](c1ccc2nccn2c1)n1nnc2ncc(-c3cnn(C)c3)nc21 = > 100 µM
COc1cc(O)c(C(=O)/C=C/c2ccccc2)c(OC)c1 = 10.3 µM

Q: Give the reported TGI for `COc1ccc(/C=C2\CN(C(=O)CCN3CCC(=NO)CC3)C/C(=C\c3ccc(OC)cc3)C2=O)cc1` (system: RPMI-8226 leukemia).
A: 3.79 µM

Q: Hi! What's the reported TGI for `CCOC(=O)c1cnc(SCc2ccc(Cl)c(Cl)c2)nc1N1CC1` on RPMI-8226 leukemia?
A: 9.64 µM

Q: Field: TGI (RPMI-8226 leukemia). Entry: `CSC(SC)=C1C(=O)NN=C1C`
A: > 100 µM

Q: Value wanted: TGI (RPMI-8226 leukemia) of entry `O=[N+]([O-])c1ccc(N/N=C\c2cc(Cl)ccc2O)nc1`
A: > 100 µM

Q: Can you look up TGI on RPMI-8226 leukemia for `NNC(=O)/C(=C/c1cccc([N+](=O)[O-])c1)NC(=O)c1ccccc1` ?
A: > 100 µM

Q: Fill in the recorded TGI for this compound, with RPMI-8226 leukemia as test system: `N#Cc1ncn(-c2ccccc2)c1N`
A: > 100 µM

Q: Short answer please: TGI, RPMI-8226 leukemia, entry `Cc1cc2nc(N3C(=O)/C(=C/c4cccc([N+](=O)[O-])c4)N=C3c3ccccc3)sc2cc1C`
A: 48.1 µM

Q: # value lookup — system RPMI-8226 leukemia, readout TGI, item `O=C(c1cccs1)c1c(C(F)(F)F)n([O-])c2ccc(C(F)(F)F)cc2[n+]1=O`
A: 1.12 µM

Q: Fill in the recorded TGI for this compound, with RPMI-8226 leukemia as test system: `N=C(/C=C/c1ccc(-c2cn3cc(/C=C/C(=N)N4CCCC4)ccc3n2)cc1)N1CCCC1`
A: > 100 µM

Q: Entry `CC1=C2C(=O)O[C@@H](c3ccoc3)[C@]2(C)CCC1=O` , system RPMI-8226 leukemia: what TGI was measured?
A: > 100 µM

----------
Test system: IGROV1 ovarian
assay-remarks: NCI tumour cell line growth inhibition, 48 h
Listing of entries alongside the reported TGI.

Example compounds with recorded TGI:
O=C1c2cc3c(cc2-c2c1c1cc(Cl)c(Cl)cc1c(=O)n2CCCn1ccnc1)OCO3 = > 100 µM
COc1ccccc1/C=C1\Sc2scc(-c3cccc([N+](=O)[O-])c3)[n+]2C1=O = 26.1 µM
CC(=O)OCC1OC(Nc2ccc3nc(C)n(-c4cccc(C)c4)c(=O)c3c2)C(OC(C)=O)C(OC(C)=O)C1OC(C)=O (configuration not stated) = > 62.5 µM

Q: For the compound `CC1=C2C(=O)O[C@@H](c3ccoc3)[C@]2(C)CCC1=O` , what TGI is on record?
A: > 100 µM

Q: Any idea what TGI was measured for COc1ccc(-c2oc3cc(O)c(OC)c(O)c3c(=O)c2OC2OC(CO)C(O)C(O)C2O)cc1 (configuration not stated) ?
A: > 100 µM

Q: Can you share its TGI? I mean this compound: O=C1C2=C(c3ccccc31)C(c1ccc(Cl)cc1)N1C(=O)CCSC1=N2 (configuration not stated)
A: > 100 µM

Q: Fill blank: measured TGI of the compound `O=c1c(Cl)nnc2sc3ccccc3n12` is ____.
A: > 100 µM

Q: Which TGI is reported for this compound? CCOC(=O)C1C=C2O[C@@H]3OC4(CCCCC4)O[C@@H]3C2[C@H]2C(=O)C=CC(=O)[C@@]12C(=O)OC (some centres not stated)
A: 27.6 µM

Q: Which TGI value is on record for `CC(C)=CC(=O)CC(=O)C(=O)Nc1ccc(C)c(C)c1` ?
A: > 100 µM

Q: Tell me the measured TGI of `CCOC(=O)N1CCN(Cc2cc(=O)n3cc(C)ccc3n2)CC1` , please.
A: > 100 µM

Q: Give the measured TGI of `CCCCN(CCCC)C(=O)C(=O)CC(=O)c1ccc(Br)cc1` .
A: > 100 µM

Sourced from PubChem BioAssay (NCI)
